- tgt: SMARCA2 (Homo sapiens, UniProt P51531)
- Sequence (P51531 whole entry): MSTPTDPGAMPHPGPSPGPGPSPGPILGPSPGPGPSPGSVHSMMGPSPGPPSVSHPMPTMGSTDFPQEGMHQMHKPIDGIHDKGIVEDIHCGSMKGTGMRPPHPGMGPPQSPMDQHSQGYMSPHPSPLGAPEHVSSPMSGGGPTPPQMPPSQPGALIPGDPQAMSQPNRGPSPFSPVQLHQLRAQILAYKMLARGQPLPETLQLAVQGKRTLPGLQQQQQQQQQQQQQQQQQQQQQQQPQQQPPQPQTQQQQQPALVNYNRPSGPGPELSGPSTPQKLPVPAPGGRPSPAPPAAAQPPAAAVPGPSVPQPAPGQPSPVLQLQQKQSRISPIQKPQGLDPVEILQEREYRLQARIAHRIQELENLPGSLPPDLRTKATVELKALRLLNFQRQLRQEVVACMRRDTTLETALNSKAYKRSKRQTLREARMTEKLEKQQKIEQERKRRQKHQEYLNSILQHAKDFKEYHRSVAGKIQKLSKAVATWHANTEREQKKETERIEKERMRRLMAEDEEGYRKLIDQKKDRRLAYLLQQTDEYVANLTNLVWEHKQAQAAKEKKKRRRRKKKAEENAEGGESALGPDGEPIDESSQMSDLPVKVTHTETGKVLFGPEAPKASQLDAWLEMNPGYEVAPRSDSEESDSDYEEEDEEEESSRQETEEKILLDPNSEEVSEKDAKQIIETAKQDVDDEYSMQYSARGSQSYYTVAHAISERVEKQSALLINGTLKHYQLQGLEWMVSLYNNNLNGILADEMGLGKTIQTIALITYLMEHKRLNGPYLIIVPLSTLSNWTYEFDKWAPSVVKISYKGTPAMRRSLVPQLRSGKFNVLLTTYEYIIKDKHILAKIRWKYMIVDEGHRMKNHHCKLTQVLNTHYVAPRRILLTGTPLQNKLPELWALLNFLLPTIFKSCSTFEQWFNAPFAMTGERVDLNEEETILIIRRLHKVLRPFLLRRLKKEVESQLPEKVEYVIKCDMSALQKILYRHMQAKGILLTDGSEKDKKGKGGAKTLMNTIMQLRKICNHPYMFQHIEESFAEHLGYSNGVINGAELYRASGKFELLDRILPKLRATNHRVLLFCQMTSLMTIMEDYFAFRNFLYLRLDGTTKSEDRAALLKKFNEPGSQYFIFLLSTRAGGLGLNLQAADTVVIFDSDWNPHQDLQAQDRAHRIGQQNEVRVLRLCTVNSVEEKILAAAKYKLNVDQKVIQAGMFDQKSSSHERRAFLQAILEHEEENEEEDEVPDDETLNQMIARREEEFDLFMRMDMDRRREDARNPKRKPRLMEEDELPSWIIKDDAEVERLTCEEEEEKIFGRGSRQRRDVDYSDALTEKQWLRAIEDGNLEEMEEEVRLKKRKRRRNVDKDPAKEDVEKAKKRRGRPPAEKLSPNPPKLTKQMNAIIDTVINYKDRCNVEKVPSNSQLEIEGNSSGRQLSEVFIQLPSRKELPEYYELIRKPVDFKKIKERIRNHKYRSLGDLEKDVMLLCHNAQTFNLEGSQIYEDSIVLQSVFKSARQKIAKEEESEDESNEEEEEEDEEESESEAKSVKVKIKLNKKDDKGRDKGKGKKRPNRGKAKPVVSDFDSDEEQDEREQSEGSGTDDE
- protocol.details: HiBiT assay for protein degradation, Hela SMARCA2-HiBiT cells (A series);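 further: 24 h compound treatment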
- Type: cell-based
- Set-up: Hela cells were genetically modified via CRISPR/Cas9 to fuse HiBiT to the carboxy terminus of SMARCA2; host or cells: HeLa (CRISPR/Cas9 HiBiT knock-in)
- condition.context: Hela SMARCA2-HiBiT cells, 24 hours treatment; read-out: SMARC A2 Hela HiBit Dmax (%)
measured.quantity: Dmax

- molecule: "Cc1ncsc1-c1ccc([C@H](COCC(=O)O)NC(=O)[C@@H]2C[C@@H](O)CN2C(=O)[C@@H](n2cc([C@H]3CC[C@H](CN4CCC(c5ccc6c(c5)-n5c(nc(=O)c7c(Cl)cccc75)C65CCCCC5)CC4)CC3)nn2)C(C)(C)C)cc1 [Compound A155]"
  result: "70 to 90%"
- molecule: "Cc1ncsc1-c1ccc([C@H](CN2CC(C)(F)C2)NC(=O)[C@@H]2C[C@@H](O)CN2C(=O)[C@@H](n2cc([C@H]3CC[C@H](CN4CCC(c5ccc6c(c5)-n5c(nc(=O)c7c(Cl)cccc75)C65CCCCC5)CC4)CC3)nn2)C(C)(C)C)cc1 [Compound A74]"
  result: "> 90%"
- molecule: "Cc1ncsc1-c1ccc([C@H](CC(=O)N(C)C)NC(=O)[C@@H]2C[C@@H](O)CN2C(=O)[C@@H](n2cc([C@H]3CC[C@H](CN4CCC(c5ccc6c(c5)-n5c(nc(=O)c7c(Cl)cccc75)C65CCCCC5)CC4)CC3)nn2)C(C)(C)C)cc1 [Compound A147]"
  result: "> 90%"
- molecule: "Cc1ncsc1-c1ccc([C@H](CN2CCC(C(=O)O)CC2)NC(=O)[C@@H]2C[C@@H](O)CN2C(=O)[C@@H](n2cc([C@H]3CC[C@H](CN4CCC(c5ccc6c(c5)-n5c(nc(=O)c7c(Cl)cccc75)C65CCCCC5)CC4)CC3)nn2)C(C)(C)C)cc1 [Compound A156]"
  result: "70 to 90%"
- molecule: "Cc1ncsc1-c1ccc([C@H](C)NC(=O)[C@@H]2C[C@@H](O)CN2C(=O)[C@@H](NC(=O)[C@H]2CC[C@H](CN3CCC(N4CCC(c5ccc6c(c5)C5(CCCCC5)c5nc(=O)c7c(Cl)cccc7n5-6)CC4)CC3)CC2)C(C)(C)C)cc1 [Compound A13]"
  result: "70 to 90%"
- molecule: "Cc1ncccc1-c1ccc([C@H](CN2CCOCC2)NC(=O)[C@@H]2C[C@@H](O)CN2C(=O)[C@@H](n2cc([C@H]3CC[C@H](CN4CCC(c5ccc6c(c5)-n5c(nc(=O)c7c(Cl)cccc75)C65CCCCC5)CC4)CC3)nn2)C(C)(C)C)cc1 [Compound A174]"
  result: "> 90%"
- molecule: "CC(C)(C)[C@@H](C(=O)N1C[C@H](O)C[C@H]1C(=O)N[C@@H](CN1CCOCC1)c1ccc(-c2ccccc2F)cc1)n1cc([C@H]2CC[C@H](CN3CCC(c4ccc5c(c4)-n4c(nc(=O)c6c(Cl)cccc64)C54CCCCC4)CC3)CC2)nn1 [Compound A164]"
  result: "> 90%"
- molecule: "COCCOC[C@H](NC(=O)[C@@H]1C[C@@H](O)CN1C(=O)[C@@H](n1cc([C@H]2CC[C@H](CN3CCC(c4ccc5c(c4)-n4c(nc(=O)c6c(Cl)cccc64)C5(C)C)CC3)CC2)nn1)C(C)(C)C)c1ccc(-c2scnc2C)cc1 [Compound A91]"
  result: "> 90%"

----------
- tgt: SMARCA2 (Homo sapiens)
- protocol.details: HiBiT assay for protein degradation, Hela SMARCA2-HiBiT cells (A series)
- Type: cell-based
- Parameters: Hela cells were genetically modified via CRISPR/Cas9 to fuse HiBiT to the carboxy terminus of SMARCA2; host or cells: HeLa (CRISPR/Cas9 HiBiT knock-in)
- condition.context: Hela SMARCA2-HiBiT cells, 24 hours treatment; read-out: SMARC A2 Hela HiBit Dmax (%)

- smiles.record: "Cc1ncsc1-c1ccc([C@H](C)NC(=O)[C@@H]2C[C@@H](O)CN2C(=O)[C@H](C2CCN(C3CCOCC3)CC2)n2cc([C@H]3CC[C@H](CN4CCC(c5ccc6c(c5)-n5c(nc(=O)c7c(Cl)cccc75)C65CCCCC5)CC4)CC3)nn2)cc1"
  Dmax: "> 90%"
- smiles.record: "Cc1ncsc1-c1ccc([C@H](CCN2CCOCC2)NC(=O)[C@@H]2C[C@@H](O)CN2C(=O)[C@@H](n2cc([C@H]3CC[C@H](CN4CCC(c5ccc6c(c5)-n5c(nc(=O)c7c(Cl)cccc75)C65CCCCC5)CC4)CC3)nn2)C(C)(C)C)cc1"
  Dmax: "> 90%"
- smiles.record: "Cc1ncsc1-c1ccc([C@H](CCN2CC(C)(F)C2)NC(=O)[C@@H]2C[C@@H](O)CN2C(=O)[C@@H](n2cc([C@H]3CC[C@H](CN4CCC(c5ccc6c(c5)-n5c(nc(=O)c7c(Cl)cccc75)C65CCCCC5)CC4)CC3)nn2)C(C)(C)C)cc1"
  Dmax: "70 to 90%"
- smiles.record: "Cc1ncsc1-c1ccc([C@@H](NC(=O)[C@@H]2C[C@@H](O)CN2C(=O)[C@@H](n2cc(C3CC3)nn2)C(C)(C)C)C(=O)N2CCC3(CCC(N4CCC(c5ccc6c(c5)-n5c(nc(=O)c7c(Br)cccc75)C65CCCCC5)CC4)CC3)CC2)cc1"
  Dmax: "> 90%"

----------
- tgt: UniProt:P51531
- protocol.details: HiBit assay in engineered HT1080 CRISPR knock-in cell, 6 hrs (B series), SMARCA2
- Type: cell-based
- condition.context: HT1080 CRISPR knock-in cells, 6 hrs incubation; read-out: SMARC A2 HT1080 HiBit DC50
Catalogue of DC50 values
measured.quantity: DC50

- compound: "Cc1ncsc1-c1ccc([C@H](C)NC(=O)[C@@H]2C[C@@H](O)CN2C(=O)[C@@H](c2cc(OCCCN3CCC(c4ccc5c(c4)C(C)(C)c4nc(=O)c6c(Cl)cccc6n4-5)CC3)no2)C(C)C)cc1 [Compound B11]"
  tgt: "UniProt:P51531"
  result: "< 100 nM"
- compound: "Cc1ncsc1-c1ccc([C@H](C)NC(=O)[C@@H]2C[C@@H](O)CN2C(=O)[C@H](C(C)C)n2cc(CCN3CCC(c4ccc5c(c4)-n4c(nc(=O)c6c(Cl)cccc64)C5(C)C)CC3)nn2)cc1 [Compound B36]"
  tgt: "UniProt:P51531"
  result: "< 100 nM"
- compound: "Cc1ncsc1-c1ccc([C@H](CCCCCN2CCC(c3ccc4c(c3)C(C)(C)c3nc(=O)c5c(Br)cccc5n3-4)CC2)NC(=O)[C@@H]2C[C@@H](O)CN2C(=O)[C@@H](NC(=O)C2(C#N)CC2)C(C)(C)C)cc1 [Compound B3]"
  tgt: "UniProt:P51531"
  result: "< 100 nM"
- compound: "Cc1ncsc1-c1ccc([C@H](C)NC(=O)[C@@H]2C[C@@H](O)CN2C(=O)[C@@H](NC(=O)CCCN2CCC(c3ccc4c(c3)-n3c(nc(=O)c5c(Cl)cccc53)C4(C)C)CC2)C(C)(C)C)cc1 [Compound B45]"
  tgt: "UniProt:P51531"
  result: "100 to 500 nM"
- compound: "Cc1ncsc1-c1ccc([C@H](C)NC(=O)[C@@H]2C[C@@H](O)CN2C(=O)[C@H](C(C)C)n2cc(CCCN3CCC(c4ccc5c(c4)-n4c(nc(=O)c6c(Cl)cccc64)C5(C)C)CC3)nn2)cc1 [Compound B58]"
  tgt: "UniProt:P51531"
  result: "< 100 nM"
- compound: "Cc1ncsc1-c1ccc2c(c1)CCC[C@H]2NC(=O)[C@@H]1C[C@@H](O)CN1C(=O)[C@@H](n1cc([C@H]2CC[C@H](CN3CCC(c4ccc5c(c4)-n4c(nc(=O)c6c(Cl)cccc64)C5(C)C)CC3)CC2)nn1)C(C)(C)C [Compound B151]"
  tgt: "UniProt:P51531"
  result: "< 100 nM"
- compound: "Cc1ncsc1-c1ccc([C@H](CCCCCn2cc(-c3ccc4c(c3)-n3c(nc(=O)c5c(Cl)cccc53)C4(C)C)cn2)NC(=O)[C@@H]2C[C@@H](O)CN2C(=O)[C@@H](NC(=O)C2(F)CC2)C(C)(C)C)cc1 [Compound B46]"
  tgt: "UniProt:P51531"
  result: "< 100 nM"
- compound: "Cc1ncsc1-c1ccc(C2(NC(=O)[C@@H]3C[C@@H](O)CN3C(=O)[C@@H](n3cc([C@H]4CC[C@H](CN5CCC(c6ccc7c(c6)-n6c(nc(=O)c8c(Cl)cccc86)C7(C)C)CC5)CC4)nn3)C(C)(C)C)CN(C)C2)cc1 [Compound B124]"
  tgt: "UniProt:P51531"
  result: "< 100 nM"
- compound: "Cc1cc(C(C(=O)N2C[C@H](O)C[C@H]2C(=O)N[C@@H](C)c2ccc(-c3scnc3C#CCOCCCN3CCC(c4cccc5c4C(C)(C)c4nc(=O)c6c(Cl)cccc6n4-5)CC3)cc2)C(C)C)on1 (stereo partly drawn) [Compound B145]"
  tgt: "UniProt:P51531"
  result: "100 to 500 nM"
